Recorded measurements of IC50, one per entry
target: UniProt:P08912; assay: Cell-based functional calcium mobilization assay of mAChR M5 activity (inhibition of EC80 acetylcholine response) in CHO cells; conditions: CHO cells stably expressing hM5; calcium flux (Fluo-4), EC80 acetylcholine addition
Sequence (P08912 whole entry): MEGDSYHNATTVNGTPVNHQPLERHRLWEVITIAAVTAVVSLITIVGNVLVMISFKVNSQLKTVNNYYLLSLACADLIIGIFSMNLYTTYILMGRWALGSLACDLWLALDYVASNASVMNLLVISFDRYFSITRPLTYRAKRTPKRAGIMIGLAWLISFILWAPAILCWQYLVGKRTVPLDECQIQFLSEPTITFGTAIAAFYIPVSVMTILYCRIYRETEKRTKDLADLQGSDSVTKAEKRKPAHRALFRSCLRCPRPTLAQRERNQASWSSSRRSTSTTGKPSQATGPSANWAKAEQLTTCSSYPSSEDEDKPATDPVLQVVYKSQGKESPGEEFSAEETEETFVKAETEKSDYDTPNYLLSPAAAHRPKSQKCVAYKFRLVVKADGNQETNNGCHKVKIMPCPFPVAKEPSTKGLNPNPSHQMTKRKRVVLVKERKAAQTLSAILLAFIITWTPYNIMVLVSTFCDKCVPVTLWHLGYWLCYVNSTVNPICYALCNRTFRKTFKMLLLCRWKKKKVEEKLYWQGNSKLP

CC1(C)CN(S(=O)(=O)c2ccc3c(c2)CCO3)CCC1C(=O)Nc1ccc2scnc2c1 (stereo not shown) [Compound 138] ... > 10 µM
CC1(C(=O)Nc2ccc3scnc3c2)CCN(S(=O)(=O)c2cccc3nsnc23)CC1 [Compound 107] ... > 10 µM

What value of IC50 has been recorded for this entry: O=C(Nc1ccc2scnc2c1)[C@H]1CCN(S(=O)(=O)c2ccc(Cl)nc2)C[C@H]1F (racemic) [Compound 71]
> 10 µM

What value of IC50 has been recorded for this entry: [2H]C1([2H])Oc2ccc(S(=O)(=O)N3CC[C@@H](C(=O)Nc4ccc5scnc5c4)C3)cc2C1([2H])[2H] [Compound 140]
0.035 µM
